- System: MS2 coat protein
- ASSAY_NAME: apparent KD of MS2 coat protein; designed switch direction (-1 OFF switch, 1 ON switch): 1; higher = weaker reporter binding
- MEASUREMENT_SETUP: input ligand: FMN 200 uM
TEST_READOUT: apparent KD of MS2 coat protein

For the 4 sequences below, give their apparent KD of MS2 coat protein values.
1. GAGCUCGUGUGAGGAUAUGCCGCCGUUUCGGCUGCAGAAGGUGCUACGUUACAUGAGGAUCACCCAUGUCUCUGUUGUUUCGUG [salish99_SSNG1_r04_958] (Eterna round: R96, puzzle: Same State NG 1)
2. GCUGCAUGGGCAGGAUAUGGGUCCAAAGCGCAAGUGCGCUUUGGUACAUGAGGAUCACCCAUGUCCCAGAAGGGCCCAAGCGGC [Inorgeesbi] (Eterna round: R96, puzzle: Same State NG 2)
3. GUAGCAUACCGAGGAUAUUCAUAAACAUGAGGAUCACCCAUGUAGGCCAGCAUUAGCUGGCCUUGGGAGAAGGCGGAAUGCUAC [Xeonanis - 20 Mod51] (Eterna round: R96, puzzle: Same State NG 2)
4. UGAGGUGUAGCAGGAUAUGCCGUCAGUCACCCGGCAGAAGGGCUGAAAGCAUGCUCGCACAUGAGGAUCACCCAUGUCACAGUG [Eternabot solution 17] (Eterna round: R96, puzzle: Same State NG 1)

Result:
["23.5 nM", "16.4 nM", "17.4 nM", "48.9 nM"]
